From: patent US10357481B2

Target: human PDE2A1 (Homo sapiens, UniProt O00408)
Construct: GST; purchased BPS Bioscience (San Diego, Calif.) 60020; host or cells: insect cells
Sequence (O00408 1-920 isoform O00408-2): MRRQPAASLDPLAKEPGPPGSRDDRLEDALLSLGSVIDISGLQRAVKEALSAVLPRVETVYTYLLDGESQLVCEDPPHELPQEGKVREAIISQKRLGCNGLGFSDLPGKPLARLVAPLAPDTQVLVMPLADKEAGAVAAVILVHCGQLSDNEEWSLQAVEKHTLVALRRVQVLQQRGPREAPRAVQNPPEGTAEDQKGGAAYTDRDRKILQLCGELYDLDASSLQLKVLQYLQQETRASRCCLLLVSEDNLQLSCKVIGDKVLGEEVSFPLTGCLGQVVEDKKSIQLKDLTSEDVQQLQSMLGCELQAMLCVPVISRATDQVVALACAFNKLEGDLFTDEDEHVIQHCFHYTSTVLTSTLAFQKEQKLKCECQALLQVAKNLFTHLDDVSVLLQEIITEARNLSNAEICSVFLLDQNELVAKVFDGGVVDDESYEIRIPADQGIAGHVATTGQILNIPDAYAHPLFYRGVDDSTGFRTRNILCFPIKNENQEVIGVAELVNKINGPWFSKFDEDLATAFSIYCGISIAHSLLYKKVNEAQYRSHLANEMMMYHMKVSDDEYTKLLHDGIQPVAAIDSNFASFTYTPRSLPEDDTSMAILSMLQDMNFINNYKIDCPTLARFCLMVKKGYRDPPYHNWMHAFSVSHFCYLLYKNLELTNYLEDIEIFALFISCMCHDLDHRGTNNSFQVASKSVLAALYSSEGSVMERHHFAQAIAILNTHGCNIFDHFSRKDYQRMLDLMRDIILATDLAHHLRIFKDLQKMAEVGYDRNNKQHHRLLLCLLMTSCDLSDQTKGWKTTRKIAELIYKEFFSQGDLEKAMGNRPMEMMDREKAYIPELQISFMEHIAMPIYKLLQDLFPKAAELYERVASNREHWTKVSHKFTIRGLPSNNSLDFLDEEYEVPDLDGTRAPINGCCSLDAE
Test: IMAP FP PDE selectivity panel, human PDE2A1
Assay type: biochemical
Conditions: Lab B; read-out: Human PDE2 Ki (nM) Lab B
value type: Ki (nM)

Record excerpt, results attached:
{"columns": ["compound", "target of assay", "number"],
 "data": [
  ["CC(C)(O)C(Nc1cc(C(F)F)nc2ncnn12)c1ccc(OC(F)F)cc1Cl (single isomer, unassigned) [Example 183]", "human PDE2A1 (Homo sapiens, UniProt O00408)", 15],
  ["Cc1cc(N[C@H](c2ccc(C(F)(F)F)c(F)c2)C(C)(C)O)nc2ncnn12 (single isomer, unassigned)", "human PDE2A1 (Homo sapiens, UniProt O00408)", 183],
  ["Cc1cc(NC2(c3ccc(C(F)(F)F)c(F)c3)CC2)n2nc(N(C)C)nc2n1", "human PDE2A1 (Homo sapiens, UniProt O00408)", 608],
  ["Cc1cc(N[C@@H](c2ccc(C(F)(F)F)cc2)C(C)C)n2ncnc2n1", "human PDE2A1 (Homo sapiens, UniProt O00408)", 36],
  ["Cc1cc(N[C@@H](c2ccc(S(F)(F)(F)(F)F)cc2)C(C)C)n2ncnc2n1", "human PDE2A1 (Homo sapiens, UniProt O00408)", 13]
]}

1. Cc1cc(N[C@@H](c2ccc(C(F)(F)F)c(F)c2)C2(C)CC2)n2ncnc2n1
2. CC(C)(O)C(Nc1cc(Cl)nc2ncnn12)c1ccc(C(F)(F)F)c(F)c1 (single isomer, unassigned) [Example 223]
3. CC(C)(O)C(Nc1cc(C(F)(F)F)nc2ncnn12)c1ccc(C(F)(F)F)cc1Cl (single isomer, unassigned) [Example 160]
4. Cc1cc(N[C@@H](c2ccc(OC(F)F)cc2)C(C)C)n2ncnc2n1
5. Cc1cc(N[C@H](c2ccc(C(F)(F)F)c(F)c2)C(C)(C)O)n2ncnc2n1
Asked: Put the compounds in ascending order of Ki. Return the labels ranked in the requested order, please.
Given back: 2, 1, 4, 3, 5

I. CC(C)(O)C(Nc1cc(C(F)F)nc2ncnn12)c1ccc(OC(F)F)cc1Cl (single isomer, unassigned) [Example 184]
II. Cc1cc(N[C@@H](c2ccc(S(F)(F)(F)(F)F)cc2)C2(C)CC2)n2ncnc2n1
III. OCc1cc(NC2(c3ccc(C(F)(F)F)cc3F)CC2)n2ncnc2c1
Asked: # sort list by recorded Ki, greatest to least Would you mind listing the labels in the order asked for?
Given back: III, I, II

I. Cc1cc(NC2(c3ccc(C(F)(F)F)c(F)c3)CC2)n2ncnc2c1
II. CC(C)(O)C(Nc1cc(C2CC2)nc2ncnn12)c1ccc(C(F)(F)F)cc1 (stereo in doubt)
Asked: Which shows the larger Ki value: I or II ? Respond using the label that marks the chosen record.
Given back: I
